All values here come from ChEMBL document CHEMBL1938335.

Quick reference: Ki of the listed items.
target_system: Transient receptor potential cation channel subfamily V member 1 (Rattus norvegicus, UniProt O35433)
Sequence (O35433 whole entry): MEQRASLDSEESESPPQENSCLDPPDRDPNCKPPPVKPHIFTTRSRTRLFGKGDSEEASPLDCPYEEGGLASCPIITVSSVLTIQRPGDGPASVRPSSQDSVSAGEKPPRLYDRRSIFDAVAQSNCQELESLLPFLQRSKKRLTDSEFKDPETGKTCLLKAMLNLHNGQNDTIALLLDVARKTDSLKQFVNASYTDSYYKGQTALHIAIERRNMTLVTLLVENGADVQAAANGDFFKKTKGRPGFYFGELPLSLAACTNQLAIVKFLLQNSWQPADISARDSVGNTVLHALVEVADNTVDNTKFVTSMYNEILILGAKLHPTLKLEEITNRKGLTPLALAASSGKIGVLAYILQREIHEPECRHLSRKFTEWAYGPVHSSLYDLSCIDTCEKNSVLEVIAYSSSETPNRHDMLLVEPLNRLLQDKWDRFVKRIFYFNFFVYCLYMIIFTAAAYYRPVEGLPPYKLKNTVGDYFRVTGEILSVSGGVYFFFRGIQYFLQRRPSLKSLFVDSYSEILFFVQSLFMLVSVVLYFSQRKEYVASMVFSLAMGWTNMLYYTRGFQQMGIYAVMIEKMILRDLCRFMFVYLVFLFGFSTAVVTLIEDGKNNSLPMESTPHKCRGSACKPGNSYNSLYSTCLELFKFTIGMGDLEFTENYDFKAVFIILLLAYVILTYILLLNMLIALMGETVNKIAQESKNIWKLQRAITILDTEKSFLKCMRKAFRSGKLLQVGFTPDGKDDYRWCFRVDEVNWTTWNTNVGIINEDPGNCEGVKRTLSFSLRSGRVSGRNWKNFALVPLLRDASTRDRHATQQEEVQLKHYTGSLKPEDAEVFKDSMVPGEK
experiment: Displacement of [3H]RTX from rat TRPV1 expressed in CHO cells
Assay type: cell-based
conditions_used: read-out: Ki
Report as a plain number; the unit nM is understood.

# annotated cases, reported Ki shown
[
  {
    "compound": "CC(C(=O)NCc1ccc(C(C)(C)C)cc1C#N)c1ccc(NS(C)(=O)=O)c(F)c1 (stereo not given)",
    "unit": "nM",
    "Ki": 44
  },
  {
    "compound": "CC(C)(C)c1ccc(CNC(=O)C(C)(C)c2ccc(NS(C)(=O)=O)cc2)cc1",
    "unit": "nM",
    "Ki": 430
  },
  {
    "compound": "Cc1ccc(CCCNC(=O)C(C)c2ccc(NS(C)(=O)=O)c(F)c2)cc1C (racemic)",
    "unit": "nM",
    "Ki": 413
  },
  {
    "compound": "Cc1ccc(C(=CCNC(=O)C(C)c2ccc(NS(C)(=O)=O)c(F)c2)c2ccc(C)cc2)cc1 (stereo not given)",
    "unit": "nM",
    "Ki": 30.9
  }
]

Consider the additional compound presented here.
Entry CC(C(=O)NCCC(c1ccccc1)c1ccccc1)c1ccc(NS(C)(=O)=O)c(F)c1 (stereo not given) — recorded Ki = 130

----------
Measured Ki of individual entries
target_system: Transient receptor potential cation channel subfamily V member 1 (Rattus norvegicus)
experiment: Displacement of [3H]RTX from rat TRPV1 expressed in CHO cells
Type: cell-based
conditions_used: read-out: Ki
Give a bare numeral; the unit nM is implied.

Solved entries (count: 2):
[
  {
    "compound": "CC(C(=O)NCC=C(c1ccc(Cl)cc1)c1ccc(Cl)cc1)c1ccc(NS(C)(=O)=O)c(F)c1 (centres undefined)",
    "target_system": "Transient receptor potential cation channel subfamily V member 1 (Rattus norvegicus)",
    "property_name": "Ki",
    "value_reported": 29.6
  },
  {
    "compound": "CC(C(=O)NCCN(c1ccccc1)c1ccccc1)c1ccc(NS(C)(=O)=O)c(F)c1 (centres undefined)",
    "target_system": "Transient receptor potential cation channel subfamily V member 1 (Rattus norvegicus)",
    "property_name": "Ki",
    "value_reported": 115
  }
]

Per the reported Transient receptor potential cation channel subfamily V member 1 (Rattus norvegicus) data, COc1cc(C(C)(C)C(=O)NCc2ccc(C(C)(C)C)cc2)ccc1NS(C)(=O)=O has Ki of 414

Reading of Ki for Cc1ccc(CCCNC(=O)[C@@H](C)c2ccc(NS(C)(=O)=O)c(F)c2)cc1C with Transient receptor potential cation channel subfamily V member 1 (Rattus norvegicus): 257

----------
target_system: Transient receptor potential cation channel subfamily V member 1 (Rattus norvegicus, UniProt O35433)
experiment: Antagonist activity at rat TRPV1 expressed in CHO cells by 45Ca2+ uptake assay
// bucketize Ki: bucket 1 = under 30 nM, bucket 2 = from 30 nM up to 100 nM, bucket 3 = 100 nM and over

Some entries whose results are on file:
[
  {
    "molecule": "CC(C(=O)NCC1CC1(c1ccccc1)c1ccccc1)c1ccc(NS(C)(=O)=O)c(F)c1 (centres undefined)",
    "assigned_label": "bucket 3"
  },
  {
    "molecule": "CC(C(=O)NCc1ccc(I)cc1)c1ccc(NS(C)(=O)=O)c(F)c1 (centres undefined)",
    "assigned_label": "bucket 3"
  },
  {
    "molecule": "COc1ccc(CNC(=O)C(C)c2ccc(NS(C)(=O)=O)c(F)c2)cc1 (centres undefined)",
    "assigned_label": "bucket 3"
  },
  {
    "molecule": "CC(C(=O)NCc1ccc(C2C=CCC2)cc1)c1ccc(NS(C)(=O)=O)c(F)c1 (centres undefined)",
    "assigned_label": "bucket 1"
  },
  {
    "molecule": "Cc1ccc(C(CCNC(=O)C(C)c2ccc(NS(C)(=O)=O)c(F)c2)c2ccc(C)cc2)cc1 (centres undefined)",
    "assigned_label": "bucket 2"
  },
  {
    "molecule": "Cc1ccc(CNC(=O)C(C)c2ccc(NS(C)(=O)=O)c(F)c2)cc1 (centres undefined)",
    "assigned_label": "bucket 3"
  }
]

Input: Exercise: read the entry CC(C(=O)NCCN(c1ccccc1)c1ccccc1)c1ccc(NS(C)(=O)=O)c(F)c1 (centres undefined) and state which class it falls under.
Output: bucket 2

Input: Band for CC(C(=O)NCc1ccc(C2CC2)cc1)c1ccc(NS(C)(=O)=O)c(F)c1 (centres undefined) ?
Output: bucket 2

----------
target_system: Transient receptor potential cation channel subfamily V member 1 (Rattus norvegicus, UniProt O35433)
experiment: Displacement of [3H]RTX from rat TRPV1 expressed in CHO cells
Format: cell-based
conditions_used: read-out: Ki
// Ki lookup, one value per entry
Reply with just the number (in nM).

Some compounds with known Ki results, for comparison:
[
  {
    "compound": "CC(C(=O)NCc1ccc(C2CCCC2)cc1)c1ccc(NS(C)(=O)=O)c(F)c1 (stereo not given)",
    "unit": "nM",
    "Ki": 93
  },
  {
    "compound": "CC(C(=O)NCc1ccc(Br)cc1)c1ccc(NS(C)(=O)=O)c(F)c1 (stereo not given)",
    "unit": "nM",
    "Ki": 412
  },
  {
    "compound": "CC(C(=O)NCc1ccc(I)cc1)c1ccc(NS(C)(=O)=O)c(F)c1 (stereo not given)",
    "unit": "nM",
    "Ki": 502
  }
]

// field: Ki; key: CC(C(=O)NCC=C1c2ccccc2C=Cc2ccccc21)c1ccc(NS(C)(=O)=O)c(F)c1 (stereo not given) ; value = 117

Lab note: measured Ki of COc1ccc(CNC(=O)C(C)c2ccc(NS(C)(=O)=O)c(F)c2)cc1 (stereo not given) was 7800

Input CC(C(=O)NCc1ccc(C2C=CCC2)cc1)c1ccc(NS(C)(=O)=O)c(F)c1 (stereo not given) . Output Ki: 162

----------
target_system: Transient receptor potential cation channel subfamily V member 1 (Rattus norvegicus, UniProt O35433)
experiment: Displacement of [3H]RTX from rat TRPV1 expressed in CHO cells
Type: cell-based
conditions_used: read-out: Ki
Listing of recorded Ki by entry.
Give just the number in nM; leave the unit off.

[
  {
    "compound": "CC(C(=O)NCc1ccc(C(C)(C)C)cc1Br)c1ccc(NS(C)(=O)=O)c(F)c1 (stereo not given)",
    "unit": "nM",
    "Ki": 47
  },
  {
    "compound": "Cc1ccc(C(CCNC(=O)C(C)c2ccc(NS(C)(=O)=O)c(F)c2)c2ccc(C)cc2)cc1 (stereo not given)",
    "unit": "nM",
    "Ki": 96
  },
  {
    "compound": "Cc1ccc(C(CCNC(=O)C(C)c2ccc(NS(C)(=O)=O)c(F)c2)c2ccc(F)cc2)cc1 (stereo not given)",
    "unit": "nM",
    "Ki": 121
  }
]

Recorded Ki (compound CC(C(=O)NCC1CC1(c1ccccc1)c1ccccc1)c1ccc(NS(C)(=O)=O)c(F)c1 (stereo not given) ): 188

get_value(item= CC(C(=O)NCc1ccc(C2CCCCC2)cc1)c1ccc(NS(C)(=O)=O)c(F)c1 (stereo not given) , readout=Ki) returns 138

----------
target_system: Transient receptor potential cation channel subfamily V member 1 (Rattus norvegicus)
experiment: Antagonist activity at rat TRPV1 expressed in CHO cells by 45Ca2+ uptake assay
Lab note: anything with Ki below 40 nM is marked Criterion met; values at 40 nM or higher are marked Criterion not met.

Reference set (2 entries):
[
  {
    "compound": "Cc1ccc(CCCNC(=O)C(C)c2ccc(NS(C)(=O)=O)c(F)c2)cc1C (racemic)",
    "target_system": "Transient receptor potential cation channel subfamily V member 1 (Rattus norvegicus)",
    "assigned_label": "Criterion not met"
  },
  {
    "compound": "CC(C(=O)NCc1ccc(C2CCCC2)cc1)c1ccc(NS(C)(=O)=O)c(F)c1 (stereo unspecified)",
    "target_system": "Transient receptor potential cation channel subfamily V member 1 (Rattus norvegicus)",
    "assigned_label": "Criterion met"
  }
]

Input: I wonder whether CC(C(=O)NCC=C1c2ccccc2C=Cc2ccccc21)c1ccc(NS(C)(=O)=O)c(F)c1 (stereo unspecified) has Ki below 40 nM. Can you tell?
Output: Criterion not met

Input: Please determine if CC(C(=O)NCc1ccc(Br)cc1)c1ccc(NS(C)(=O)=O)c(F)c1 (stereo unspecified) is below 40 nM in terms of Ki.
Output: Criterion not met

Input: Regarding CC(C(=O)NCc1ccc(C(C)(C)C)cc1Br)c1ccc(NS(C)(=O)=O)c(F)c1 (stereo unspecified) , kindly confirm whether its Ki is beneath 40 nM.
Output: Criterion met

Input: Field: below-cutoff. Rule: recorded Ki strictly less than 40 nM. Subject: CC(C(=O)NCc1ccc(C2CCCCC2)cc1)c1ccc(NS(C)(=O)=O)c(F)c1 (stereo unspecified)
Output: Criterion not met

Input: Does the reported Ki of the following compound sit strictly below 40 nM? CC(C(=O)NCC=C(c1ccc(Cl)cc1)c1ccc(Cl)cc1)c1ccc(NS(C)(=O)=O)c(F)c1 (stereo unspecified)
Output: Criterion met

Input: Hello, I'm reviewing records and need to know if Ki of CC(C(=O)NCCC(c1ccc(F)cc1)c1ccc(F)cc1)c1ccc(NS(C)(=O)=O)c(F)c1 (stereo unspecified) is below 40 nM. Could you check?
Output: Criterion met

Input: Below 40 nM on Ki? Entry Cc1ccc(C(CCNC(=O)C(C)c2ccc(NS(C)(=O)=O)c(F)c2)c2ccc(F)cc2)cc1 (stereo unspecified)
Output: Criterion met

Input: Below 40 nM on Ki? Entry COc1cc(C(C)(C)C(=O)NCc2ccc(C(C)(C)C)cc2)ccc1NS(C)(=O)=O
Output: Criterion not met
